The reported measurements were obtained from PubChem BioAssay AID686979.

test.details: qHTS for Inhibitors of human tyrosyl-DNA phosphodiesterase 1 (TDP1): qHTS in cells in presence of CPT; note: nearly all actives have a fitted effect of over 55% in size
measurement.setup: chicken DT40 Tdp1-/-;hTDP1 cells + 20 nM CPT, ATP luminescence, 48 h; series mostly up to 46.2 µM
Out of some 420,000 compounds screened, about 50,000 (12%) were called active. Not shown: some 26% with an inconclusive outcome. Calls come from the whole dose curve; as a rule, active = well fitted inhibition curve with a large enough effect; inconclusive = small, poorly fitted or top-dose-only effect; inactive = flat fitted curve, though single readings scatter. The sample holds actives, similar compounds and a random draw of the others, so the mix is not that of the screen.
Lab note: assign the record to one of Yes (active), No (inactive)

Solved cases below.
O=C(Cc1ccc(Br)cc1)NCCc1ccccc1; No
CC1CCCN(CC(=O)Nc2cc(Cl)ccc2Oc2ccccc2)C1 (stereo unspecified); Yes
CS(=O)(=O)N(Cc1ccccc1Cl)c1ccc(C(=O)NCc2cccnc2)cc1; Yes

Identify the outcome logged in this assay for the compound shown: C#CCOCCOCCOCCNc1nc(N2CCN(C(=O)C([C@@H](C)CC)n3cc(C(N)COC(=O)C(F)(F)F)nn3)CC2)nc(N2CCN(C(=O)[C@H](Cc3ccc(O)cc3)n3cc(C(N)[C@H](C)CC)nn3)CC2)n1 (stereo partly specified)
No

Same lookup for COc1ccc(C)cc1Nc1nc(C)nc2c1oc1ccccc12 , please.
No

Would you kindly repeat that for O=C(Nc1ccc2ccccc2c1)/C(=C\c1ccc2c(c1)OCO2)NC(=O)c1ccco1 ?
No

Next compound up: CCCc1nc(-c2ccccc2O)n(-c2ccccc2)n1
No

Repeat for the following compound: CC1CCCC(C)N1C(=O)COC(=O)c1ccccc1C(=O)c1ccccc1 (stereo unspecified)
No

* * *

test.details: qHTS for Inhibitors of human tyrosyl-DNA phosphodiesterase 1 (TDP1): qHTS in cells in presence of CPT; note: nearly all actives have a fitted effect of over 55% in size
measurement.setup: chicken DT40 Tdp1-/-;hTDP1 cells + 20 nM CPT, ATP luminescence, 48 h; series mostly up to 46.2 µM
About 50,000 (12%) of roughly 420,000 compounds were called active. Roughly 26% stayed inconclusive and do not appear here. Calls follow the shape of the dose curve; as a rule, active = well fitted inhibition curve with a large enough effect; inconclusive = small, poorly fitted or top-dose-only effect; inactive = flat fitted curve, though single readings scatter. What follows is part of a selection rich in actives, with near analogues and random picks from the rest.
A correct response names exactly one class from yes for active, no for inactive

Worked examples, 5 compounds total:
Cc1c(Cl)cccc1NC(=O)NCCCN1CCCC1=O; no
CCc1cc(C(=O)Nc2nnc(C3CC3)s2)sc1C; no
CN(c1ccccc1)S(=O)(=O)c1ccc(Cl)c(C(=O)OCC(=O)NCc2ccco2)c1; no
Cc1nn(-c2ccccc2)c(C)c1NC(=O)COC(=O)c1cc(Cl)ccc1O; no
CC(OC(=O)CNC(=O)c1ccco1)C(=O)Nc1ccc(Cl)cn1 (centres undefined); no

What classification did CCOc1cc(NC(=O)c2ccco2)c(OCC)cc1NC(=O)COc1ccccc1 end up with in this test?
yes

Another: COCCCNC(=O)[C@H]1N2C(=O)c3ccccc3C2SC1(C)C (some centres undefined)
no

Here is the next compound: CN(CC(=O)Nc1ccc(S(=O)(=O)N2CCCC2)cc1)Cc1ccc(Cl)c(Cl)c1
no

Now give it for Cc1cc(C(=O)OCC(=O)NCc2ccco2)c(C)n1-c1ccccc1 too.
yes

Do the same for COC(=O)c1ccc(NCc2cc(O)ccc2O)cc1 please
yes

And what about the compound CCc1ccc(CN(C)C(C)C(=O)Nc2ccc(S(=O)(=O)N3CCCC3)cc2)cc1 (centres undefined) ?
yes

// query: COc1cc2ccccc2cc1C(=O)N1CCOCC1
no

What do we get for CCCCNC(=O)CSc1nc2cc3c(cc2c(=O)n1CCCCCC(=O)NCc1ccc2c(c1)OCO2)OCO3 ?
no

And CCOc1cc(NS(=O)(=O)c2ccc(OC)cc2)c(OCC)cc1NC(C)=O ?
no

* * *

test.details: qHTS for Inhibitors of human tyrosyl-DNA phosphodiesterase 1 (TDP1): qHTS in cells in presence of CPT; note: nearly all actives have a fitted effect of over 55% in size
measurement.setup: chicken DT40 Tdp1-/-;hTDP1 cells + 20 nM CPT, ATP luminescence, 48 h; series mostly up to 46.2 µM
Out of some 420,000 compounds screened, about 50,000 (12%) were called active. Not shown: some 26% with an inconclusive outcome. The call rests on the fitted dose curve; in most records, active means well fitted inhibition curve with a large enough effect; inconclusive means small, poorly fitted or top-dose-only effect; inactive means flat fitted curve, though single readings scatter. Many of the other results were omitted from the sample, so actives are more common in it than they were.
Pick one and only one: active, inactive

O=C(NCCc1ccccc1)C(=O)NCC(c1ccco1)S(=O)(=O)c1ccccc1 (stereo unspecified); inactive
O=[N+]([O-])c1ccc(COc2ccccc2CN2CCOCC2)cc1; active
CC(C)(C)c1ccc(C(=O)NCC(c2ccco2)S(=O)(=O)c2ccc(F)cc2)cc1 (stereo unspecified); active

Outcome? O=[N+]([O-])c1ccc(N2CCOCC2)cc1
inactive

Input CC1=C(C(=O)Nc2cccc(C(=O)NCC(C)c3ccccc3)c2)SCCO1 (stereo unspecified)
active

Request: O=C(Nc1cccc(C(=O)N2CCCC2)c1)c1ccccc1
inactive

// query: CC(C)(C)c1ccc(C(=O)NCc2ccco2)cc1
inactive

How about CC(C)(C)c1ccc(C(=O)NCCC(=O)NCc2ccco2)cc1 ?
inactive

Another molecule to check: O=C(Cn1nc([N+](=O)[O-])nc1Br)NC1CCCCC1
inactive

Also, CC(CNC(=O)c1nnc(Cc2cccc(F)c2)o1)c1ccccc1 (stereo unspecified) please.
inactive

Item: O=C(OCc1ccc([N+](=O)[O-])cc1)C1CC(=O)N(Cc2ccccc2Cl)C1 (stereo unspecified)
inactive

* * *

test.details: qHTS for Inhibitors of human tyrosyl-DNA phosphodiesterase 1 (TDP1): qHTS in cells in presence of CPT; note: nearly all actives have a fitted effect of over 55% in size; note: potency is the fitted concentration of half-maximal effect
measurement.setup: chicken DT40 Tdp1-/-;hTDP1 cells + 20 nM CPT, ATP luminescence, 48 h; series mostly up to 46.2 µM
Out of some 420,000 compounds screened, about 50,000 (12%) were called active. About 26% were inconclusive and are not listed. Shown is part of a subset that was picked to be rich in actives.
outcome.measure: Potency

In the examples that follow, each entry is paired with its recorded Potency.
O=C(OCc1cc(=O)n2nc(C3CC3)sc2n1)c1ccccc1Cl; inactive
C[C@@H](NC(=O)c1nc[nH]c1C(=O)N1CCN(C(=O)OC(C)(C)C)CC1)c1ccccc1; inactive
CC1(C)CC(=O)C(CC(=O)N2CCC(Cc3ccccc3)CC2)C(=O)C1; inactive
COCC1CCN(C(=O)C2CCC(=O)N(Cc3cccc(C(F)(F)F)c3)C2)CC1 (configuration not stated); inactive
Cc1ccc2nc(-c3ccc(Br)cc3)cn2c1; inactive
COc1ccccc1C1C(C(=O)N2CCCCC2)=C(C)Nc2nc3ccccc3n21 (configuration not stated); inactive
NC(=O)COC(=O)c1sc2cc(F)ccc2c1Cl; inactive
O=C(CN1CCOc2ccccc21)N1CCC(Cc2ccccc2)CC1; 13 µM (active)
CCCn1nc(C(=O)OCc2nc(N)nc(Nc3ccccc3C)n2)c2ccccc2c1=O; inactive
OC(CBr)CN1CCCCC1 (configuration not stated); inactive

Alright, here's another compound for you.
// returns reported Potency for input COCC1CCCN(C(=O)c2ccc3oc(C(C)C)nc3c2)C1 (configuration not stated)
inactive

* * *

test.details: qHTS for Inhibitors of human tyrosyl-DNA phosphodiesterase 1 (TDP1): qHTS in cells in presence of CPT; note: nearly all actives have a fitted effect of over 55% in size
measurement.setup: chicken DT40 Tdp1-/-;hTDP1 cells + 20 nM CPT, ATP luminescence, 48 h; series mostly up to 46.2 µM
The whole screen tested about 420,000 compounds, of which about 50,000 (12%) were called active. Another 26% or so got no clear call; they are omitted. Calls follow the shape of the dose curve; as a rule, active = well fitted inhibition curve with a large enough effect; inconclusive = small, poorly fitted or top-dose-only effect; inactive = flat fitted curve, though single readings scatter. What follows is part of a selection rich in actives, with near analogues and random picks from the rest.
Return exactly one item of YES (active), NO (inactive)

Here are 2 compounds together with their reported answers.
CCOc1cccc(C(=O)Nc2nnc(-c3cccs3)s2)c1; NO
Cc1c(CCC(=O)N[C@@H](CC(C)C)C(=O)O)c(=O)oc2c(C)c3oc4c(c3cc12)CCCC4; NO

Test call, this compound: CCOC(=O)c1ccccc1NC(=O)COC(=O)CCC(=O)N1CCOCC1
NO

Also check N#CCSc1nc2ccc(N3CCOCC3)cc2c(=O)n1CCc1ccccc1
YES

How about this compound: COc1cccc(CNC(=O)c2cccnc2Sc2ccc(Cl)cc2)c1
NO

* * *

test.details: qHTS for Inhibitors of human tyrosyl-DNA phosphodiesterase 1 (TDP1): qHTS in cells in presence of CPT; note: nearly all actives have a fitted effect of over 55% in size
measurement.setup: chicken DT40 Tdp1-/-;hTDP1 cells + 20 nM CPT, ATP luminescence, 48 h; series mostly up to 46.2 µM
Among all 420,000 compounds or so, about 50,000 (12%) were called active. About 26% were inconclusive and are not listed. The call rests on the fitted dose curve; in most records, active means well fitted inhibition curve with a large enough effect; inconclusive means small, poorly fitted or top-dose-only effect; inactive means flat fitted curve, though single readings scatter. The entries come from a sample that favours actives as a whole.
Permitted responses: label 1 = active, label 0 = inactive

Answer briefly: the call reported for CCC(=O)N1CCc2cc(S(=O)(=O)CCC(=O)N3CCN(c4ccccc4F)CC3)ccc21 in this assay.
label 0

Record: Cc1sc2ncnc(SCC(=O)NC3CCS(=O)(=O)C3)c2c1C (stereo unspecified)
label 0

Same question for CC(=O)N1CCCc2cc(S(=O)(=O)N3CCCC(C(=O)NCc4ccc(Cl)cc4)C3)ccc21 (stereo unspecified) please.
label 1

What about this molecule? CCCCC1(C(=O)OCC)NC(c2ccc(O)cc2)C2C(=O)N(c3ccccc3)C(=O)C21 (stereo unspecified)
label 1

Repeat with Cc1ccc2[nH]c3c(=O)n(CC(=O)NCCc4ccc(Cl)cc4)ncc3c2c1
label 0

Same question, COC(=O)C1(C)NC(c2ccc(F)cc2)C2C(=O)N(c3ccccc3)C(=O)C21 (stereo unspecified) this time
label 0

// same read-out, input: O=C(CCS(=O)(=O)c1cc(Br)cc2c1N(C(=O)C1CC1)CC2)Nc1ccc(C(F)(F)F)cc1
label 0

Same lookup for CC(C)CC(=O)N/C(N)=N/c1nc2ccccc2s1 , please.
label 1

Same lookup for COc1cc2c(cc1OC)C(C(=O)Nc1cc(C)c(OC)c(C)c1)CC(=O)N2 (stereo unspecified) , please.
label 0

Next up: COC(=O)c1ccccc1NS(=O)(=O)c1ccc2c(c1)CCCN2C(C)=O
label 0

And for CCn1c(SCC(=O)NC2CC2)nnc1-c1ccncc1 ?
label 0

CN(Cc1ccccc1)C(=O)CCS(=O)(=O)c1cc(Br)cc2c1N(C(=O)C1CC1)CC2 , same question.
label 1

Another: O=C(CCS(=O)(=O)c1cc(Br)cc2c1N(C(=O)C1CC1)CC2)Nc1ccc(Br)cc1F
label 0

Subsequent entry: CCC(=O)N1CCc2cc(Br)cc(S(=O)(=O)CCC(=O)NCc3ccccc3OC)c21
label 0

Entry to check: CCOC(=O)C1(C)NC(c2ccco2)C2C(=O)N(c3ccccc3)C(=O)C21 (stereo unspecified)
label 0
